Would you mind telling me the reported NF-kB reporter of each entry?
# System: RAW-Dual (murine macrophage reporter line)
# assay-details: NF-kB reporter (SEAP) activity fold change vs agonist alone; higher = enhanced NF-kB activity
# applied-conditions: modulator concentration 10 µM; agonist: LPS 0.1 ug/mL
Give a plain numeric answer without units written out.

**Q:** Which measured NF-kB reporter value corresponds to COC1CCN(C2CN(C(=O)CCn3cnc4ccccc4c3=O)C2)CC1 ?
**A:** 1.08

**Q:** Item: CN(C)c1nc(CNS(C)(=O)=O)nc(N2CCCCC2)n1
**A:** 1.08

**Q:** Item: O=C(C=Cc1ccc(Br)cc1)c1c(-c2ccccc2)c2cc(Cl)ccc2[nH]c1=O
**A:** 0.792

**Q:** Item: COC(=O)C1=C(C)NC(C)=C(C(=O)O[C@@H]2CCCN(Cc3ccccc3)C2)[C@@H]1c1cccc([N+](=O)[O-])c1.Cl
**A:** 0.587

**Q:** Item: CN1CCN(CC(=O)N2c3ccccc3C(=O)Nc3cccnc32)CC1.Cl.Cl
**A:** 1.03

**Q:** Item: O=C(NCCCn1ccc2cccnc21)c1cccc(Br)c1
**A:** 1.12

**Q:** Item: COc1cc2c(cc1OC)C(=O)NC1(CCCC1)C2
**A:** 0.958

**Q:** Item: CCOC(=O)C1=C(C)NC(C)=C(C(=O)OC)C1c1cccc(Cl)c1Cl (centres undefined)
**A:** 0.603

**Q:** Item: CC(=O)N1CC(C(=O)Nc2cccc(Br)c2)C1
**A:** 1.05

**Q:** Item: Cc1ccc(-c2cc(-c3ccccc3)nc(NN=Cc3ccc(O)cc3)n2)cc1
**A:** 1.3

**Q:** Item: CSCCC(NC(C)=O)C(=O)N1CCC(n2c(C)nc3ccccc32)C1 (centres undefined)
**A:** 0.96

**Q:** Item: CN1CCN(C2=NC(=O)C(=Cc3ccc(Cl)cc3Cl)S2)CC1
**A:** 0.86

**Q:** Item: COCCCN1C(=O)C(=Cc2ccc(-c3ccc(Cl)cc3Cl)o2)SC1=S
**A:** 1.01

**Q:** Item: CCN(CC)CCNC(=O)c1cc(S(C)(=O)=O)ccc1OC.Cl
**A:** 1.16

**Q:** Item: Cc1cc(Cl)ccc1OCCCC(=O)NO
**A:** 0.794

**Q:** Item: O=C(O)C=Cc1ccc2c(c1)OCCO2
**A:** 0.902

**Q:** Item: Cc1nccn1CC1CCc2c(c3ccccc3n2C)C1=O.Cl.O.O (centres undefined)
**A:** 0.917

**Q:** Item: O=C1NC(=O)C(=Cc2ccc(F)cc2)S1
**A:** 0.951

**Q:** Item: COC(=O)/C=C/C(=O)OC
**A:** 1.06

**Q:** Item: CS(=O)(=O)N(CC(=O)NCCSCc1cccc(Cl)c1)c1cccc(Cl)c1
**A:** 0.986

**Q:** Item: O=C(NN=Cc1ccc([N+](=O)[O-])o1)c1ccc(O)cc1
**A:** 1.49

**Q:** Item: CC(N)C12CC3CC(CC(C3)C1)C2.Cl (centres undefined)
**A:** 1.07

**Q:** Item: Oc1ccc2ccccc2c1SSc1c(O)ccc2ccccc12
**A:** 0.993

**Q:** Item: O=C(Nc1cccnc1)c1ccc(OC2CCOCC2)nc1
**A:** 0.97
